I'd appreciate it if you could supply GI50 values for the items below.
system: SK-MEL-28; assay: NCI tumour cell line growth inhibition, 48 h
Active and inactive are the calls of the source. Rule as the data show it: active = GI50 up to about 1.1 µM and inactive = higher.

Record excerpt, results attached:
[ask] Check the records and state GI50 for CC1CC2(OC2C)C(=O)OC2CCN(C)C/C=C(/COC(=O)C1(C)O)C2=O (stereo unspecified)
[reply] > 100 µM (inactive)

[ask] Return GI50 (reported value) for this compound: CN(N=O)N1C(=O)SCC(c2ccccc2)(c2ccccc2)C1=O
[reply] 36.8 µM (inactive)

[ask] Identify the reported GI50 for the following entry. NS(=O)(=O)c1cc2c(cc1Cl)N=C(CCC(=O)O)NS2(=O)=O
[reply] > 100 µM (inactive)

Fill in GI50 for each of the 2 compounds listed.
1. COc1nc2c(N3CCCC3)nc(N3CCNCC3)nc2nc1NCc1ccccc1
2. CN(C(=O)C12C3C4C1C1C2C3C41C(N)=O)C(C)(C)C (stereo unspecified)

[reply]
["2.01 µM (inactive)", "> 100 µM (inactive)"]

Give GI50 for all compounds that follow.
1. CN(C(=O)Cc1ccccc1)n1cn[n+](CC(=O)OC(C)(C)C)c1
2. COc1cc2c(cc1OC)C(=O)N1CCCC1C(=O)S2 (stereo unspecified)
3. CS/C(=N\C#N)S/C=C/C(=O)c1ccc(Cl)cc1
4. Cc1ccc(OCC2OC(n3cnc4c(Br)nc(Br)nc43)CC2Oc2ccc(C)cc2)cc1 (stereo unspecified)
5. CCCNc1ncnc2[nH]ncc12
6. COc1ccc(CC2COc3cc(O)cc(O)c3C2=O)cc1O (stereo unspecified)

[reply]
["> 10 µM (inactive)", "> 100 µM (inactive)", "20.6 µM (inactive)", "4.51 µM (inactive)", "> 100 µM (inactive)", "3.75 µM (inactive)"]
